assay: Odor threshold concentration (Log T / Log ODT) by gas chromatograph sniff port with panelists; set-up: species or system human; settings: ingredient of Perfume oil B (Table 3)
measured-property: Log ODT

[[record]]
substance = "(2RS,4SR)-4-METHYL-2-(2-METHYL-1-PROPEN-1-YL)TETRAHYDRO-2H-PYRAN (A) + (2RS,4RS)-4-METHYL-2-(2-METHYL-1-PROPEN-1-YL)TETRAHYDRO-2H-PYRAN (B)"
reported = ">−4"

[[record]]
substance = "TRICYCLO[5.2.1.0~2,6~]DEC-3-EN-8-YL ACETATE (A) + TRICYCLO[5.2.1.0~2,6~]DEC-4-EN-8-YL ACETATE (B)"
reported = ">−4"

[[record]]
substance = ".ALPHA.-DIHYDROTERPINEOL (A) + BETA.-DIHYDROTERPINEOL (B)"
reported = ">−4"

[[record]]
substance = "(2Z)-1,1-DIETHOXY-3,7-DIMETHYL-2,6-OCTADIENE (A) + (2E)-1,1-DIETHOXY-3,7-DIMETHYL-2,6-OCTADIENE (B)"
reported = ">−4"

[[record]]
substance = "(+−)-4-METHYLENE-2-PHENYLTETRAHYDRO-2H-PYRAN (A) + (+−)-4-METHYL-6-PHENYL-3,6-DIHYDRO-2H-PYRAN (B) + (+−)-4-METHYL-2-PHENYL-3,6-DIHYDRO-2H-PYRAN (C)"
reported = "<−4"

[[record]]
substance = "3-(4-ETHYLPHENYL)-2,2-DIMETHYLPROPANAL (A) + 3-(2-ETHYLPHENYL)-2,2-DIMETHYLPROPANAL (B)"
reported = ">−4"

[[record]]
substance = "10-UNDECENAL (A) + (9E)-9-UNDECENAL (B) + (9Z)-9-UNDECENAL (C)"
reported = "<−4"


###

Let's look at some compounds and their measured Log ODT.
experiment: Odor threshold concentration (Log T / Log ODT) by gas chromatograph sniff port with panelists; design: species or system human; conditions: ingredient of Perfume oil C (Table 5)
measured-property: Log ODT

[[record]]
compound = "CC(=O)OCCC(C)CCC=C(C)C (centres unmarked) [37-DIMETHYL-6-OCTENYL ACETATE]"
measured_property = "Log ODT"
reported = ">−4"

[[record]]
compound = "CCCCCCCC1CCC(=O)O1 (racemic) [(+−)-5-HEPTYLDIHYDRO-2(3H)-FURANONE]"
measured_property = "Log ODT"
reported = "<−4"

[[record]]
compound = "CC/C=C\\CCOC(C)=O [(Z)-3-HEXENYL ACETATE]"
measured_property = "Log ODT"
reported = ">−4"

[[record]]
compound = "CC(=O)O[C@@H]1CC2CC[C@]1(C)C2(C)C"
measured_property = "Log ODT"
reported = ">−4"

[[record]]
compound = "C=CC(C)(CCC=C(C)C)OC(C)=O (racemic)"
measured_property = "Log ODT"
reported = ">−4"

[[record]]
compound = "O=C1CCCCCCCCCCCCCCO1 [OXACYCLOHEXADECAN-2-ONE]"
measured_property = "Log ODT"
reported = ">−4"

[[record]]
compound = "CC12CCC(CC1)C(C)(C)O2"
measured_property = "Log ODT"
reported = ">−4"

[[record]]
compound = "CC1=CCC(C(C)(C)S)CC1 (racemic)"
measured_property = "Log ODT"
reported = "<−4"


###

assay: Odor threshold concentration (Log T / Log ODT) by gas chromatograph sniff port with panelists; set-up: species or system human; settings: ingredient of Perfume oil C (Table 5)
measured-property: Log ODT

[[record]]
compound = "COc1ccc2ccccc2c1 [2-METHOXYNAPHTHALENE]"
reported = "<−4"

[[record]]
compound = "CC1=CCC2C[C@@H]1C2(C)C (single isomer, unassigned; (-))"
reported = ">−4"

[[record]]
compound = "CCCCCCCCCC(C)C=O (racemic) [(+−)-2-METHYLUNDECANAL]"
reported = "<−4"

[[record]]
compound = "CC/C=C\\CCOC(=O)C(C)C [(Z)-3-HEXENYL ISOBUTYRATE]"
reported = ">−4"

[[record]]
compound = "C=CCCC(=O)C1=CCCC(C)(C)C1"
reported = "<−4"

[[record]]
compound = "CCCCC[C@H]1C(=O)CC[C@@H]1CC(=O)OC (racemic)"
reported = ">−4"


###

Experiment: Odor threshold concentration (Log T / Log ODT) by gas chromatograph sniff port with panelists
Set-up: species or system human
Details: ingredient of Perfume oil C (Table 5)
Protocol: “High impact perfume raw materials” should be understood as perfume raw materials having a Log T<−4. The odor threshold concentration of a chemical compound is determined in part by its shape, polarity, partial charges and molecular mass. […] The odor threshold concentration of a perfuming compound is determined by using a gas chromatograph (“GC”). […] The air flow rate is accurately measured and, assuming the duration of a human inhalation to last 12 seconds, the sampled volume is calculated. […]
Let's look at some substances and their measured Log ODT.
measured-property: Log ODT

[[record]]
substance = "10-UNDECENAL (A) + (9E)-9-UNDECENAL (B) + (9Z)-9-UNDECENAL (C)"
reported = "<−4"

[[record]]
substance = "3,7-DIMETHYL-2,6-NONADIENENITRILE (A) + 3,7-DIMETHYL-3,6-NONADIENENITRILE (B)"
reported = ">−4"

[[record]]
substance = "(1RS,2RS)-2,4-DIMETHYL-3-CYCLOHEXENE-1-CARBALDEHYDE (A) + (1RS,2SR)-2,4-DIMETHYL-3-CYCLOHEXENE-1-CARBALDEHYDE (B)"
reported = ">−4"

[[record]]
substance = "3,5,6-TRIMETHYL-3-CYCLOHEXENE-1-CARBALDEHYDE (A) + 2,4,6-TRIMETHYL-3-CYCLOHEXENE-1-CARBALDEHYDE (B)"
reported = ">−4"

[[record]]
substance = "1-OXA-12-CYCLOHEXADECEN-2-ONE (A) + 1-OXA-13-CYCLOHEXADECEN-2-ONE (B)"
reported = ">−4"

[[record]]
substance = "(+−)-(3E)-3-METHYL-4-(2,6,6-TRIMETHYL-2-CYCLOHEXEN-1-YL)-3-BUTEN-2-ONE (A) + (+−)-(1E)-1-(2,6,6-TRIMETHYL-2-CYCLOHEXEN-1-YL)-1-PENTEN-3-ONE (B)"
reported = "<−4"


###

experiment: Odor threshold concentration (Log T / Log ODT) by gas chromatograph sniff port with panelists; parameters: species or system human; conditions: ingredient of Perfume oil B (Table 3)
measured-property: Log ODT

[[record]]
compound = "CC(C)CCCC(C)CCO (racemic)"
measured_property = "Log ODT"
reported = ">−4"

[[record]]
compound = "CC12CCC(CC1)C(C)(C)O2"
measured_property = "Log ODT"
reported = ">−4"

[[record]]
compound = "COCCc1ccccc1 [(2-METHOXYETHYL)BENZENE]"
measured_property = "Log ODT"
reported = ">−4"

[[record]]
compound = "CC/C=C(\\C)C(O)CCCCC (racemic) [(+−)-(E)-4-METHYL-3-DECEN-5-OL]"
measured_property = "Log ODT"
reported = ">−4"

[[record]]
compound = "CC(C)c1cccc(C(C)CC=O)c1 (racemic) [(+−)-3-(3-ISOPROPYL-1-PHENYL)BUTANAL]"
measured_property = "Log ODT"
reported = "<−4"

[[record]]
compound = "C=CCCC(=O)C1=CCCC(C)(C)C1"
measured_property = "Log ODT"
reported = "<−4"

[[record]]
compound = "CC1=CC2CC(C=O)C1CC2C(C)C (centres unmarked)"
measured_property = "Log ODT"
reported = "<−4"

[[record]]
compound = "C/C=C/C(=O)[C@@H]1[C@@H](C)C=CCC1(C)C (racemic)"
measured_property = "Log ODT"
reported = "<−4"

[[record]]
compound = "CC(C)=CCCC(C)C=O (racemic)"
measured_property = "Log ODT"
reported = ">−4"

[[record]]
compound = "COc1nccnc1CCCC(C)C"
measured_property = "Log ODT"
reported = "<−4"

[[record]]
compound = "CCCCCCCCCC(C)C=O (racemic) [(+−)-2-METHYLUNDECANAL]"
measured_property = "Log ODT"
reported = "<−4"

[[record]]
compound = "CC1(C)CCC[C@]2(C)[C@H]3CCO[C@]3(C)CC[C@@H]12"
measured_property = "Log ODT"
reported = "<−4"

[[record]]
compound = "CCCCCCCCCC(C)=O [Capsule 2-UNDECANONE, 2-UNDECANONE]"
measured_property = "Log ODT"
reported = ">−4"

[[record]]
compound = "CC1=CCC(C(C)(C)S)CC1 (racemic)"
measured_property = "Log ODT"
reported = "<−4"

